# System: K4 kissing-loop RNA reporter
# test-method-notes: apparent KD of K4 kissing-loop reporter; higher = weaker reporter binding
# recorded-conditions: Eterna round: R107; input ligand: none
apparent KD of K4 kissing-loop reporter of 200 nM or higher: yes. Under 200 nM: no.

Here's what some known entries look like.
(Q) Reported apparent KD of K4 kissing-loop reporter at or above 200 nM? AAUUUAUUAACUGAUACCAGACUUAAUAAAUUGUAAAUUACUAGUGAUGUUAGUGAAUUUGUCCCUUGGCAGCAGUAUUUAUUAA [JR_ExcTheophyB_Sub009]
(A) no

(Q) For this sequence, is measured apparent KD of K4 kissing-loop reporter 200 nM or higher? AAAUAUUCGAGUGAUGUUCGAUAAAUAUCAGAGGAUAUGCUUAAAAGCAGAAGGCUGUAUUUCUAUUUGUUAUGUAAUUUUAUAA [JR_SSFMNA_Sub021]
(A) no

(Q) Does apparent KD of K4 kissing-loop reporter meet or surpass 200 nM for UGAUAGGACAGAAGGAGCGGAAGUGAUGUUUCCAAAAGGAAAGGUCGACAAAGUCGACCCUUCCAGGUAGGUCGCUGUCCUAUCU [ArgBX 8 #Palindromic #SwitchBubble #StaticStem] ?
(A) no

(Q) Form field: apparent KD of K4 kissing-loop reporter at least 200 nM? Entry: UCGAUGGCCAGCGAUACCAGCCCAGUGAUGUUGGGCACAUGGUUGCGGGAAAUCCCAUUGGGCCCUUGGCAGCGCUUGCAUAGGU [Cezaat]
(A) no

(Q) Decide: apparent KD of K4 kissing-loop reporter of GCCGUACGCAUGGAUACCAGCUGCGAAGUGAUGUUUCGGGCGAUCAAAGGAUCGCCCUACAGCCCUUGGCAGCCAUGCGUACGGC >= 200 nM?
(A) no

(Q) # bool: apparent KD of K4 kissing-loop reporter of UAAUAAUAAUGAUAAUAAUCAAGUGGUGGACGAGGACCGGUACGGCCGCCACUCGAAAAUGCAGUGAUGUUGUAAUACGGAUAAU [Exclusion - Tryptophan A (Freestyle 2)] >= 200 nM
(A) no

New cases:
(Q) hey, is apparent KD of K4 kissing-loop reporter for this one >= 200 nM? CUCACGCUCACAGAUACCAGUGGUGAUCCGGAUUGUAGUGAUGUUAAUUCCGCCAUCAUACACCCUUGGCAGCUGGCGUCACCUU [theeternabot_sameState_KL_Theo_B_31]
(A) yes

(Q) Please check the record GUAUCGCUAGGAGGAUAUUUCAUAUAACAUAUAAAUGGAUAUGCGGAGUGAUGUUCCGAUUUACGGAAAGAAGGCCUAGUGAUAC [FMN B 19] and state if its apparent KD of K4 kissing-loop reporter is at or above 200 nM.
(A) no

(Q) # check: apparent KD of K4 kissing-loop reporter of AACGCUGGAUGAAUAACAUCUAGCGAAAUUCGAGGACCGGUACGGCCGCCACUCGAGCUAACUGCGAGUGAUGUUCGAUAAUAAA [Mat - Mod of OpenEnded 3 - D5] is greater than or equal to 200 nM
(A) yes

====

# System: K4 kissing-loop RNA reporter;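 note: bound reporter read as fluorescence of individual clusters on recovered sequencing chips by microscopy, with normalized cluster intensities fitted with a binding model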
# test-method-notes: apparent KD of K4 kissing-loop reporter; higher = weaker reporter binding
# recorded-conditions: Eterna round: R107; input ligand: theophylline 20 uM
measurement-label: apparent KD of K4 kissing-loop reporter (µM)
Your answer should be a plain number; it is taken to be in µM.

(Q) Suppose we examine the sequence UGUGUUUACCUGACUCAGUGAUGUUGAGAAGGAGCGUGCGAACGCACAGGUAGGUCGCUCAACCUAAAUUCAGGUGAGCACUAAA ; what apparent KD of K4 kissing-loop reporter value has been reported?
(A) 0.611

(Q) Need apparent KD of K4 kissing-loop reporter, item AAACAUUGGUCGGAUACCAGUUAGACCGAUAGGUCAAAACUGGAGUGAUGUUCCUAAAAUAACCCUUGGCAGCCGACCGAUGAAA [MAT - Same State Theophlline B - Mod of Eli - D5]
(A) 0.905

New cases:
(Q) Tell me the measured apparent KD of K4 kissing-loop reporter of UGGAUAUCGUUUAGUCUGGUGAGCUCAGAUACCAGACUAGCGAUAGUCCCUUGGCAGCUGAUUAUGAUUGAGUGAUGUUCAAUCG [Theo A Ex t9b] , please.
(A) 0.151

(Q) Can you look up the measured apparent KD of K4 kissing-loop reporter of GGCAUAUGGGCAGGAUAUAGGCAGGUAGAGUGAUGUUCUUUCUGAAUAAUUCCAUCCUUCUACCUACUAGAAGGGCCCAUAUGCC for me?
(A) 0.11

(Q) What apparent KD of K4 kissing-loop reporter value was documented for this sequence, ACGCGCGAGACGGCCGCCACUAUACGUCGAGUGAUGUUCGAGCCAAGAUGUCGUUACGUUUAUAAUAGGACCGGGUCAAUGGAUU [theeternabot_sameState_KL_Trp_B_19] ?
(A) 0.661

(Q) Please report the recorded apparent KD of K4 kissing-loop reporter for AGGAUGUAGUGAUGUUAUAUAAGAAGUAAACGAGGACCGGUACGGCCGCCACUCGAAGCGGCUACUAGCGCGCGCGCGCGCGCGC [ExTryptoA.Ca] .
(A) 0.336

(Q) I'd like to know its apparent KD of K4 kissing-loop reporter. The sequence in question is AUUCUAUGGAGUGAUGUUCCUGUGAUGUCACGAGGACCGGUACGGCCGCCACUCGAUGUAUUGGUUUUUGAAAGAAACAACUGCA [Same State-Tryptophan A]
(A) 0.773

(Q) Which apparent KD of K4 kissing-loop reporter value belongs to CAAGUCGAAAAGUGAUGUUUUUCAUACGAUACCAGCAACCAGACAUGCCCUUGGCAGCGUCCAUUACGUUUCUGAGCCCGUACAG [theeternabot_exclusion_KL_Theo_A_40] ?
(A) 0.388
